inhibition (INH) values by entry
Tested on: Aorta
protocol-notes: Vasorelaxant activity in Wistar rat endothelium-intact aortic rings assessed as inhibition of phenylephrine-induced contractions at 10 to 100 uM after 10 to 60 mins
Assay type: functional

// worked examples, inhibition (INH) included
>>> meas_value("COc1cc2c(cc1O)-c1ccc(O)cc1CCc1cc(O)c(O)c(c1)Oc1ccc(cc1)CC2 [PLAGIOCHIN A]")
">60%"
>>> meas_value("Oc1ccc2cc1-c1cc(ccc1O)CCc1c(ccc(O)c1O)Oc1cccc(c1)/C=C\\2 [ISOPLAGIOCHIN B]")
">60%"
>>> meas_value("Oc1cccc(CCc2ccc(Oc3cc(CCc4cccc(O)c4)cc(O)c3O)cc2)c1 [PERROTETTIN F]")
">60%"
>>> meas_value("COc1ccc2cc1Oc1ccc(cc1)CCc1cc(O)ccc1-c1ccc(cc1O)CC2 [RICCARDI F]")
">60%"
>>> meas_value("Oc1ccc2c(c1)CCc1ccc(cc1)Oc1cc(ccc1O)CCc1ccc-2c(O)c1 [RICCARDI C]")
">60%"
>>> meas_value("Oc1ccc2c(c1)CCc1ccc(O)c(c1)-c1cc(ccc1O)CCc1ccc-2c(O)c1 [ISOPLAGIOCHIN D]")
">60%"

Aorta / inhibition (INH) / COc1ccc2c(c1)CCc1ccc(cc1)Oc1cc(ccc1O)CCc1ccc-2c(O)c1 [RICCARDIN A] : value?
>60%
